# System: Trypanosoma cruzi
# protocol-text: Trypanosoma cruzi phosphomannomutase and mannose-1-phosphate guanylyltransferase assay
# Type: functional
# Design: scale not given: direction of the effect not stated beside the values
# condition-notes: 10 µM
metric: Percent Effect (%)
Quick note: give the figure in %, leave out the unit.

Inquiry: What does the data say about its Percent Effect? Entry: "Cc1ccccc1CS(=O)(=O)NCCCN1CCCCC1"
Reply text: 0.292

Inquiry: # input molecule: COc1cccc(CC2CN(C3CCN(C(C)=O)CC3)CCO2)c1 (centres undefined) ; wanted: its Percent Effect
Reply text: -1.87

Inquiry: # query: Percent Effect of entry "O=S1(=O)C[C@@H]2[C@H](C1)N(Cc1ncc[nH]1)CCN2CC1CC1"
Reply text: -3.28

Inquiry: Value lookup for Percent Effect; key = "CN(C)C1CCN(C(=O)NCc2ccc(Cn3cncn3)cc2)CC1"
Reply text: 9.85

Inquiry: # input molecule: "Cc1cccc(-c2nc(C)nn2CC(=O)N(C)C2CC2)c1" ; wanted: its Percent Effect
Reply text: 3.18

Inquiry: Query: Percent Effect; subject: "Cc1cnc(NC(=O)N2CCCC2)s1"
Reply text: 8.5

Inquiry: Name the reported Percent Effect value associated with the molecule "CC(C)(C)C(=O)NCCC(=O)NC(C)(C)c1ccc2c(c1)OCCO2"
Reply text: -0.783

Inquiry: Percent Effect lookup needed for "Cc1cc(CN2CC[C@H]3C(=O)N(c4ccccc4)CCO[C@H]3C2)no1" , thanks.
Reply text: -4.92

Inquiry: // query Percent Effect value for entry Cc1nccnc1N1CCC2(CCCN(C3CCOCC3)C2=O)C1 (centres undefined)
Reply text: -5.56

Inquiry: Fill in the blank: the reported Percent Effect of "Cn1cc(C(=O)NC[C@@H]2OC[C@H]3CN(Cc4ccco4)CC[C@H]32)cn1" is ____.
Reply text: 5.75

Inquiry: Would you mind telling me what Percent Effect value was observed for "CCn1cc(C(=O)NCc2csc(Br)c2)cn1" ?
Reply text: -2.97

Inquiry: Quick one: Percent Effect for CC(C)c1noc(CCC(=O)NC(C)c2nnc3n2CCCCC3)n1 (centres undefined) ?
Reply text: -1.47

Inquiry: Can you share its Percent Effect? I mean this molecule: "Cc1ccc(C(=O)NS(=O)(=O)c2cc(Cl)ccc2Cl)c(=O)[nH]1"
Reply text: 4.18

Inquiry: Need Percent Effect, item "Cc1ccc2c(n1)N(C)CCN(C(=O)NC1CC1)C2"
Reply text: -7.53

Inquiry: Which value of Percent Effect has been reported for "CCO[C@@H]1CO[C@@]2(CCCN(Cc3scnc3C)C2)C1" in the records?
Reply text: 7.14

Inquiry: Given the entry Cc1nccn1C1CCCN(C(=O)c2ccc3c(c2)nnn3C)C1 (centres undefined) , report its measured Percent Effect.
Reply text: -4.95

Inquiry: What value of Percent Effect has been recorded for this entry: "CCOCCn1nc(C)cc1C(=O)N1CC[C@](C)(O)[C@H](C)C1"
Reply text: -4.25

Inquiry: Look up Percent Effect for this molecule: "COC(=O)c1cccc(OCCn2nc(-c3cccs3)oc2=O)c1"
Reply text: -4.36

Inquiry: May I ask what Percent Effect has been recorded for "Cn1ccc2c(C(=O)N3CCC(C(N)=O)CC3)cccc21" ?
Reply text: -4.13

Inquiry: Consider the molecule "O=C(Nc1nc2c(s1)CCC2)c1cccnc1N1CCOCC1" and give its measured Percent Effect.
Reply text: -4.19

Inquiry: Look up Percent Effect: Cc1n[nH]c(C2CN(C(=O)c3cc(Cl)c[nH]3)CCO2)n1 (centres undefined)
Reply text: -0.876

Inquiry: What value of Percent Effect has been reported for the following molecule? CC(O)CN(CC(=O)NC(=O)NCC(F)(F)F)c1ccccc1 (centres undefined)
Reply text: -3.82

Inquiry: Query (molecule): "COc1ccccc1CN(C)C(=O)c1cc(CN2CCC(O)CC2)on1" ; field requested: Percent Effect
Reply text: 3.53

Inquiry: Looking for the measured Percent Effect of O=C(CC1CCCO1)NCc1ccccc1Cn1cncn1 (centres undefined) , can you help?
Reply text: -7.75
